B1: glmS ribozyme (parent)
chain: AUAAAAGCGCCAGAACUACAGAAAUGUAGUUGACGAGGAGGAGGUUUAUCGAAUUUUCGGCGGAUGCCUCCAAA

Variants of: B1
ASSAY COMMENT: self-cleavage kobs at 2500 uM GlcN6P; higher = faster cleavage; RNA array
EXPERIMENTAL SETUP: with glucosamine-6-phosphate
This sample holds only a part of the variants without activity.
PARAMETER MEASURED: self-cleavage kobs at 2500 uM GlcN6P (s⁻¹)
Your answer should be a plain number; it is taken to be in s⁻¹.

Guide cases for self-cleavage kobs at 2500 uM GlcN6P, answers given:
A14G A42U: 0.000357
U31A G32U: 0.000256
C11U G44U C67G: 0.00425

query: Would you kindly share the measured self-cleavage kobs at 2500 uM GlcN6P for C16U C50U ?
result: 5.3e-05

src = the supplement of paper PMC7125110
